# Test system: SCC2095 (oral squamous cell carcinoma cell line)
# assay summary: Anti-proliferation MTT assay in SCC2095 cell line
# Format: cell-based, human
# test conditions: Homo sapiens, 48 h
observable: IC50

In [3]: df
Out[3]:
                                test_smiles  observable       result
0  CC1(C)O[C@H]2CC(=O)OC[C@]23[C@H]2CC[C@@]4(C)[C@H](c5ccoc5)OC(=O)[C@H]5O[C@]54[C@]2(C)C(=O)C[C@@H]13        IC50  > 100 µg/mL

Find the recorded IC50 belonging to CC1=C2C(=O)O[C@@H](c3ccoc3)[C@]2(C)CCC1 and report it.
28.6 µg/mL

====

# Tested on: SCC2095 (oral squamous cell carcinoma cell line)
# assay summary: Anti-proliferation MTT assay in SCC2095 cell line
# Type: cell-based, human
# test conditions: Homo sapiens, 48 h
observable: IC50

Recorded IC50, per entry:
>>> print(df.to_string())
                                test_smiles  observable       result
0  Oc1ccc2c(c1)OC[C@H]1c3cc4c(cc3O[C@@H]21)OCO4        IC50   86.3 µg/mL
1  CC1(C)OC(=O)C=C[C@]2(C)[C@H]3CC[C@@]4(C)[C@H](c5ccoc5)OC(=O)[C@H]5O[C@]54[C@]3(C)C(=O)C[C@@H]12        IC50  > 100 µg/mL
2  OC[C@H]1O[C@@H](Oc2ccc3c(c2)OC[C@H]2c4cc5c(cc4O[C@@H]32)OCO5)[C@H](O)[C@@H](O)[C@@H]1O        IC50  > 100 µg/mL

Find the recorded IC50 belonging to O=C1CCC[C@@H]2[C@H]3CCCN4CCC[C@@H](CN12)[C@@H]34 and report it.
> 100 µg/mL

All values here come from paper PMC4541799.
